This collection of values is drawn from patent US20250059174A1.

# Tested on: M-07e cells
# EXPERIMENT_DESCRIPTION: M-07e cellular assay (SCF-mediated cell proliferation)
# Format: cell-based
# MEASUREMENT_PARAMETERS: Homo sapiens, 72 hours, CellTiter Glo
pEC50: −log10 of the molar value.
REPORTED_PROPERTY: pEC50

>>> value_reported("Cc1ncc(-c2noc([C@H]3C[C@@H](OC(F)(F)F)C3)n2)cc1NC(=O)c1cnn2cc(-c3cn(CC4(C)COC4)nn3)ccc12")
"> 7.00"
>>> value_reported("Cc1ccc(-c2noc([C@H]3C[C@@H]3F)n2)cc1NC(=O)c1cnn2ccc(-c3cn(C45CC(F)(C4)C5)nn3)cc12")
"> 7.00"
>>> value_reported("Cc1ccc(-c2noc([C@H]3C[C@@H]3F)n2)cc1NC(=O)c1ccc2c(c1)CC(=O)N2")
"< 6.00"
>>> value_reported("Cc1ccc(-c2noc([C@H]3C[C@@H]3F)n2)cc1NC(=O)c1cnn2ccc(-c3c(C)nc(Cl)nc3C)cc12")
"6.00 to 7.00"
>>> value_reported("CC(=O)Nc1ccc(-c2ncc(C(=O)Nc3cc(-c4noc([C@H]5C[C@@H]5F)n4)ccc3C)o2)cc1")
"6.00 to 7.00"

Measured pEC50, `Cc1ccc(-c2noc([C@H]3C[C@@H]3F)n2)cc1NC(=O)c1cnn2ccc(N3CC4(COC(C)(C)OC4)C3)cc12` : < 6.00

The value of pEC50 measured for the molecule `Cc1ccc(-c2noc([C@H]3C[C@@H]3F)n2)cc1NC(=O)c1cnn2ccc(Br)cc12` turned out to be 6.00 to 7.00

# pEC50 (molecule: `Cc1ccc(-c2noc([C@H]3C[C@@H]3F)n2)cc1NC(=O)c1cnn2ccc(C=O)cc12` ) is 6.00 to 7.00

# pEC50 (molecule: `Cc1ccc(-c2noc([C@H]3C[C@@H]3F)n2)cc1NC(=O)c1ccc2[nH]c(=O)[nH]c2c1` ) is < 6.00

Notebook: `Cc1ccc(-c2noc([C@H]3C[C@@H]3F)n2)cc1NC(=O)c1cnc(-c2cccc(NS(C)(=O)=O)c2)o1` , pEC50 read as 6.00 to 7.00
